# Test system: K-562 leukemia
# PROTOCOL_DETAILS: NCI-60 one-dose screen, 48 h
# STATED_CONDITIONS: 10 µM unless noted
The panel holds about 83,000 compounds, 20% with a hit somewhere; the sample as a whole holds those more often. Active and inactive are the calls of the source. How the source made its calls: active means growth percent below 10; inactive means the rest.
Outcomes: active, inactive

# MOLECULE, EXPERIMENTAL_TARGET, CLASS
data = [
    ("CS(=O)(=O)C1=CN(CCO)C(=O)N2CCCN=C12", "K-562 leukemia", "inactive"),
    ("CN(C)c1ccc(Nc2cc(-c3cccc(OC(F)(F)F)c3)nc3ccc(N4CCCC4)cc23)cc1", "K-562 leukemia", "active"),
    ("COC(=O)CCC(=O)C(=O)OC", "K-562 leukemia", "active"),
    ("O=C(CCCCC1CCSS1)Nc1ncnc2n[nH]c(-c3ccc(Oc4ccccc4)cc3)c12 (stereo not given)", "K-562 leukemia", "active"),
    ("Cc1ccc2c3c(c(=O)[nH]c2c1)C1(C(C#N)=C(N)O3)c2cc(Br)ccc2-c2ccc(Br)cc21", "K-562 leukemia", "inactive"),
    ("CCCCCCCCn1ccc2cc(NC(=O)CN3CCN(c4nc(C)cc(Cl)n4)CC3)ccc21", "K-562 leukemia", "inactive"),
    ("O=C1/C(=C/c2ccc(F)cc2)COc2ccc(O)cc21", "K-562 leukemia", "active"),
    ("O=C(NNc1nccc(Nc2ccc(S(=O)(=O)Nc3ccncc3)cc2)n1)c1ccccc1", "K-562 leukemia", "inactive"),
    ("CCSc1nc(NC)c2cc(-c3ccc(C(F)(F)F)cc3)ccc2n1", "K-562 leukemia", "inactive"),
    ("COc1cc(/C=C/C(=O)c2cccc(Nc3nc(Nc4ccccc4)nc(Nc4ccccc4)n3)c2)cc(OC)c1OC", "K-562 leukemia", "inactive"),
]
